The reported measurements were obtained from PubChem BioAssay (Tox21).

System: Androgen receptor (Homo sapiens) (UniProt P10275)
Sequence (P10275 whole entry, looked up): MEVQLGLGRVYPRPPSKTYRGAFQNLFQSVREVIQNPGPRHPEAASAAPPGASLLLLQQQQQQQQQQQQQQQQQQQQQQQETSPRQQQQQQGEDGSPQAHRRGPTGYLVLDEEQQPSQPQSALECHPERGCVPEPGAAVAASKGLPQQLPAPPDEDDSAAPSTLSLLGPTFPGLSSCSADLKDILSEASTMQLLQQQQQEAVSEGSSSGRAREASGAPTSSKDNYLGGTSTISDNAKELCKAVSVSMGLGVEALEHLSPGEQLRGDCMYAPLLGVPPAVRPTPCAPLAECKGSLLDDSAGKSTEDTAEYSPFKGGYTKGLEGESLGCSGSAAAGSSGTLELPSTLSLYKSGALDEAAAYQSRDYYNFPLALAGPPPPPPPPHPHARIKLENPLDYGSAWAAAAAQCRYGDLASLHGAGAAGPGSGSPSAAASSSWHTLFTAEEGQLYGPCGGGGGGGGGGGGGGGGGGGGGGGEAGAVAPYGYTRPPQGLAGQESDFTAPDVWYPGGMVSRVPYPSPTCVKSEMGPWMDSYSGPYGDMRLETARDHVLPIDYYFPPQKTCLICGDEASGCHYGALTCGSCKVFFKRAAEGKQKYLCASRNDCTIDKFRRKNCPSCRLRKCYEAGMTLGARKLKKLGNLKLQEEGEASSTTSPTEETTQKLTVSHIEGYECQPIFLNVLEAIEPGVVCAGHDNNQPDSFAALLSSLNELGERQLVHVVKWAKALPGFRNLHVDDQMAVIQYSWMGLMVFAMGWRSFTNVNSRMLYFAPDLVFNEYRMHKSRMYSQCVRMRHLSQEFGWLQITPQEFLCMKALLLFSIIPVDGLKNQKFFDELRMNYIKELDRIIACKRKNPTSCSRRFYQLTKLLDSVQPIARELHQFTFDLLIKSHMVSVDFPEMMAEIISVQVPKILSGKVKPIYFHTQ
Procedure details: qHTS assay to identify small molecule antagonists of the androgen receptor (AR) signaling pathway (AID 743035); further: potency means the concentration at half of the fitted maximal effect
Measurement context: HEK293 AR-UAS-bla, R1881-stimulated, beta-lactamase FRET, 16 h; series mostly up to 58.5 µM
Source text: National Center for Advancing Translational Sciences [NCATS] NIH Chemical Genomics Center [NCGC] U.S. Environmental Protection Agency [EPA] National Institutes of Environmental Health Sciences [NIEHS] National Toxicology Program [NTP] U.S. Food and Drug Administration [FDA] Androgen receptor (AR), a nuclear hormone receptor, plays a critical role in AR-dependent prostate cancer and other androgen related diseases. […]
Inconclusive results are not listed. The source made the active and inactive calls. The call rests on the fitted dose curve; in most records, active means well fitted inhibition curve with a large enough effect in the signal ratio in the repeat runs (not every such curve was filed as active); inconclusive means weak or mixed curves, or effect the other way; inactive means no such curve, though single readings can be large or run the other way; the % refers to the signal ratio.
Experimental endpoint: Potency

| Compound | Potency |
| --- | --- |
| CON=C1C[C@]2(C[C@@H]3C[C@@H](C/C=C(\C)C[C@@H](C)/C=C/C=C4\CO[C@@H]5[C@H](O)C(C)=C[C@@H](C(=O)O3)[C@]45O)O2)O[C@H](/C(C)=C/C(C)C)[C@H]1C | 7.56 µM (active) |
| N[C@@H](Cc1cnc[nH]1)C(=O)O | inactive |
| O=C(O)COc1ccc(C(=O)c2cccs2)c(Cl)c1Cl | inactive |
| O=C(O)/C=C/C(O)c1ccc(Cl)cc1 (stereo not drawn) | inactive |
| CN[C@H]1CC[C@@H](c2ccc(Cl)c(Cl)c2)c2ccc(S(N)(=O)=O)cc21 | 43.6 µM (active) |
| O=S(=O)(O)CC(S)CS (stereo not drawn) | inactive |

In: Reported Potency, compound `C[C@@H]1O[C@@H](OC[C@H]2O[C@@H](Oc3c(-c4ccc(OCCO)c(OCCO)c4)oc4cc(OCCO)cc(O)c4c3=O)[C@H](O)[C@@H](O)[C@@H]2O)[C@H](O)[C@H](O)[C@H]1O` : ____
Out: inactive

In: Reported Potency, compound `CO/N=C(\C(=O)N[C@@H]1C(=O)N2C(C(=O)O)=C(C[N+]3(C)CCCC3)CS[C@H]12)c1csc(N)n1` : ____
Out: inactive

====

Procedure details: qHTS assay for identifying genotoxic compounds that show differential cytotoxicity against isogenic chicken DT40 cell lines with known DNA damage response pathways - Rev3 mutant cell line (AID 743014); further: nearly all actives have a fitted effect of over 55% in size
Measurement context: chicken DT40 Rev3-/- viability, CellTiter-Glo, 40 h; series mostly up to 68.4 µM
Results filed as inconclusive are left out. Activity calls are given as the source filed them. Calls come from the whole dose curve; as a rule, active = well fitted cell-killing curve with a large enough effect in the repeat runs; inconclusive = weak or mixed curves, or effect the other way; inactive = no such curve, though single readings can be large or run the other way.
Field 'call' accepts active, inactive

In: // outcome(item) with item = `CC1=C(/C=C/C(C)=C/C=C/C(C)=C/C=C/C=C(C)/C=C/C=C(C)/C=C/C2=C(C)CCCC2(C)C)C(C)(C)CCC1`
Out: inactive

In: // outcome(item) with item = `CNC(=O)OCc1cccc(COC(=O)NC)n1`
Out: inactive

In: // outcome(item) with item = `CCCC(=O)c1cc(O)c(O)cc1O`
Out: active

In: // outcome(item) with item = `CN(C[C@@H](CC[N+]12CCC(C3CCCCC3)(CC1)CC2)c1ccc(Cl)c(Cl)c1)C(=O)c1cc(C(F)(F)F)cc(C(F)(F)F)c1`
Out: active

In: // outcome(item) with item = `Cc1onc(-c2c(F)cccc2Cl)c1C(=O)N[C@@H]1C(=O)N2[C@@H]1SC(C)(C)[C@@H]2C(=O)O`
Out: inactive
